Reference for the values: patent US5322859A

- studySystem: Serotonin 2 Receptor (Homo sapiens)
- Sequence (P28223 whole entry): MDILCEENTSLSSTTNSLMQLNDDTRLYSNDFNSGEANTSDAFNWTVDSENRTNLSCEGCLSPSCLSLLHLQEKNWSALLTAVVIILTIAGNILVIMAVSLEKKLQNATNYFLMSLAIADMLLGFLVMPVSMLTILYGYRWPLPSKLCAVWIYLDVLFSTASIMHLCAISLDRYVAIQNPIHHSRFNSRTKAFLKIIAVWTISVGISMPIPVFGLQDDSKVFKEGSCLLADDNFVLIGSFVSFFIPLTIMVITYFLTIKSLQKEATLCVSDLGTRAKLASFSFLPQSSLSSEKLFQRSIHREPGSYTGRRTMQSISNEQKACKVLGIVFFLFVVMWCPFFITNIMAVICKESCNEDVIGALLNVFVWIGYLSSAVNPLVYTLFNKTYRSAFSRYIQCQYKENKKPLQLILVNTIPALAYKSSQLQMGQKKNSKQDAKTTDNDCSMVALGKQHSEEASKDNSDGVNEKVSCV
- experimentSummary: NovaScreen receptor binding, Serotonin 2 Receptor
- testSettings: 10^-9 M (1 nM)
assayEndpoint: inhibition at 0.001 µM

CN(C)CCc1ccccc1 | -2.1%
CCCCCCN(C)CCc1ccccc1 | 2.3%

Give recorded inhibition at 0.001 µM with Serotonin 2 Receptor (Homo sapiens) for the following molecule: CCN(CCc1ccccc1)C1CCCCC1.Cl [n = 2, R = C2 H5, R' = cyclohexyl, hydrochloride]
-11.2%

Serotonin 2 Receptor (Homo sapiens) / inhibition at 0.001 µM / `CN(CCCc1ccccc1)C1CCCCC1` : value?
-15.4%

* * *

- Test system: Serotonin 1 Receptor
- experimentSummary: NovaScreen receptor binding, Serotonin 1 Receptor
- testSettings: 10^-7 M (100 nM)
- Procedure: A number of compounds were sent to NovaScreen® (5200 Freeport Centre, Baltimore, Md. 21224) to determine the compounds' receptor selectivity. […] Compounds which show inhibition of 50% or greater at an assay concentration of 10 μM to 1 nM are considered active or very potent, respectively. In the table below a number of compounds show significant results for two or more of the significant receptors.
Below is a list of entries, each paired with its recorded % INHIBITION value.
State the value, then name its unit.

Some compounds with recorded % INHIBITION:
CCCCCCN(C)CCc1ccccc1 | 30.0%
CCN(CCc1ccccc1)C1CCCCC1.Cl | -4.0%
CN(CCCc1ccccc1)C1CCCCC1 | -10.2%
CN(C)CCc1ccccc1 | 70.6%

Entry `CCN(C)Cc1ccccc1` has what % INHIBITION?
6.2%
